As shown below, each of these molecules has a reported Cell Viability (% @ 10 μM) value.
System: Huh-7.5 cells
Test: Cell viability assay ([…]-GLO)
Assay type: cell-based, human
Conditions: 10 μM
# value in %; strip the unit string

COc1ccc(S(=O)(=O)Nc2ccc(-c3nc4ccc(-c5nc6ccc(C)c(S(=O)(=O)O)c6s5)cc4s3)cc2)cc1 [Compound 29] | 75

What Cell Viability (% @ 10 μM) value was documented for this molecule, Cc1ccc2nc(-c3ccc4nc(-c5ccc(NC(=O)c6cc(F)ccc6C(F)(F)F)cc5)sc4c3)sc2c1S(=O)(=O)O [Compound 26] ?
118

Quick one: Cc1ccc2nc(-c3ccc4nc(-c5ccc(NC(=O)c6cccc(C(F)(F)F)c6)cc5)sc4c3)sc2c1S(=O)(=O)O [Compound 20]
121

Same thing, different molecule: Cc1ccc2nc(-c3ccc4nc(NC(=O)c5ccc6ncoc6c5)sc4c3)sc2c1
28

Next: Cc1ccc2nc(-c3ccc4nc(-c5ccc(NC(=O)c6ccc(N)cc6)cc5)sc4c3)sc2c1S(=O)(=O)O [Compound 6]
93

How about this molecule: Cc1ccc2nc(-c3ccc4nc(-c5ccc(NC(=O)c6ccc(NC(=O)OCC7c8ccccc8-c8ccccc87)cc6)cc5)sc4c3)sc2c1S(=O)(=O)O [Compound 16]
92

Then Cc1ccc2nc(-c3ccc4nc(-c5ccc(N(C)C(=O)c6ccc7ccccc7c6)cc5)sc4c3)sc2c1S(=O)(=O)O [Compound 34] ?
101

====

# Lookup of reported Int.* (Ratio) (Interference) keyed by entry
Target: HCV NS3 helicase NS3h_1b(con1) (Hepatitis C virus genotype 1b, UniProt Q9WMX2)
Construct: truncated C-terminally His-tagged NS3 proteins lacking the N-terminal protease, called NS3h; His-tag (C); made in house
Sequence (Q9WMX2 1192-1657): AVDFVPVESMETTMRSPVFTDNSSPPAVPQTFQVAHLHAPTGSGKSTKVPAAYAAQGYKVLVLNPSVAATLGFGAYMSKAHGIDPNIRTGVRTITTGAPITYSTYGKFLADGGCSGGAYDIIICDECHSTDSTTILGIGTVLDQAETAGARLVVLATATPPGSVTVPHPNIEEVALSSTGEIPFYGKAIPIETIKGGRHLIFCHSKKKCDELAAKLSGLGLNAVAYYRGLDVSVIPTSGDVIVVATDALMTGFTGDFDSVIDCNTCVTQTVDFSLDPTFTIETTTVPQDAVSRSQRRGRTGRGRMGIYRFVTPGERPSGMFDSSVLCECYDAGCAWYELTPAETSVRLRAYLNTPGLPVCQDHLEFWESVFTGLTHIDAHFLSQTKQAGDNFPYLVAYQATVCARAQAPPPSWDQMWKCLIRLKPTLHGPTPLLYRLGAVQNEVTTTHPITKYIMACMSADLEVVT
Experiment: MBHA screen of NCI mechanistic set library at 20 μM (percent inhibition, compound interference)
Assay type: biochemical
Settings: compounds at 20 μM; assay interference calculated with Equation 2 (fluorescence vs DMSO-only controls before ATP)
Procedure: All molecular beacon-based helicase assays (MBHAs) were performed according to known methods (Belon & Frick (2008) supra; Belon & Frick (2009) supra). […] Fluorescence was read before ATP (F0) addition and 30 minutes after ATP was added to 1 mM (F30) using a Tecan Infinite M200 fluorescence microplate reader with excitation and emission wavelengths set to 643 and 670 nm, respectively. […]
Numbers only; they are read as Ratio.

These recorded examples may help you get a feel for the data.
OCc1ccc(-c2ccc(-c3ccc(CO)s3)o2)s1 | 0.98
CCCN(CCC)C(=S)Sc1nc(C)nc(N2CCN(c3nc(C)nc(SC(=S)N(CCC)CCC)c3[N+](=O)[O-])CC2)c1[N+](=O)[O-] | 1.04
Cc1c(N=Cc2ccc(N(CCC#N)CCC#N)cc2)c(=O)n(-c2ccccc2)n1C | 1.01

Read the next record carefully.
Suppose we examine the compound CCCCCCCCCCSCC(CO)NC(=O)/C=C/c1c(C)[nH]c(=O)[nH]c1=O (stereo not shown) ; what Int.* (Ratio) (Interference) value has been reported?
0.96

====

Assay: in vitro
Format: cell-based
Settings: human
property: CC50 at 24 h

Give the measured CC50 at 24 h of Cc1ccc2nc(-c3ccc4nc(-c5ccc(NC(=O)c6cccc(Cl)c6)cc5)sc4c3)sc2c1S(=O)(=O)O .
> 50 µM

====

Target: E. coli SSB-Cy5-dT15 complex (Escherichia coli)
Construct: purchased Promega
Sequence (P0AGE0 2-178, one chain of several): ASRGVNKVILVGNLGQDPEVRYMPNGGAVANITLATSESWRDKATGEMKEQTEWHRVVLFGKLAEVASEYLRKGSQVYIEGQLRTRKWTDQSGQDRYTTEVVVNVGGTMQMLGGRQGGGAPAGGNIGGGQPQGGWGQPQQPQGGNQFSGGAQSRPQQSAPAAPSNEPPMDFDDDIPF
Test: Escherichia coli SSB Cy5-dT15 binding assay (fluorescence polarization)
Conditions: read-out: SSB % Displaced @ 100 μM
inhibition at 100 µM reference
Write the numeric value and append its unit.

Cc1ccc2nc(-c3ccc4nc(-c5ccc(NC(=O)c6ccc(F)cc6)cc5)sc4c3)sc2c1S(=O)(=O)O.N | 88%

Quick check: inhibition at 100 µM of Cc1ccc2nc(-c3ccc4nc(-c5ccc(NC(=O)c6cccc(Cl)c6)cc5)sc4c3)sc2c1S(=O)(=O)O ?
47%

Now the molecule Cc1ccc2nc(-c3ccc4nc(-c5ccc(NC(=O)c6ccccc6C(F)(F)F)cc5)sc4c3)sc2c1S(=O)(=O)O
92%

Next molecule up: COc1ccc(NC(=O)Nc2ccc(-c3nc4ccc(-c5nc6ccc(C)c(S(=O)(=O)O)c6s5)cc4s3)cc2)cc1
95%

Would you kindly repeat that for Cc1ccc(NC(=O)Nc2ccc(-c3nc4ccc(-c5nc6ccc(C)c(S(=O)(=O)O)c6s5)cc4s3)cc2)cc1 ?
96%

Now give it for Cc1ccc2nc(-c3ccc4nc(-c5ccc(NC(=O)c6ccc7nc(-c8ccc(N)cc8)sc7c6)cc5)sc4c3)sc2c1S(=O)(=O)O too.
95%

For Cc1ccc2nc(-c3ccc4nc(-c5ccc(NC(=O)c6cc(F)cc(C(F)(F)F)c6)cc5)sc4c3)sc2c1S(=O)(=O)O then?
23%

How about this molecule: Cc1ccc2nc(-c3ccc4nc(-c5ccc(NC(=O)c6ccc(C(C)(C)C)cc6)cc5)sc4c3)sc2c1S(=O)(=O)O
80%

Now the molecule Cc1ccc2nc(-c3ccc(NC(=O)c4ccc(NC(=O)c5ccc(N)cc5)cc4)cc3)sc2c1S(=O)(=O)O.N
94%

Can you check Cc1ccc2nc(-c3ccc4nc(-c5ccc(NC(=O)c6ccc7nc(-c8ccc(NC(=O)OCC9c%10ccccc%10-c%10ccccc%109)cc8)sc7c6)cc5)sc4c3)sc2c1S(=O)(=O)O.N next?
95%

Try the molecule Cc1ccc2nc(-c3ccc4nc(-c5ccc(NC(=O)Nc6ccccc6)cc5)sc4c3)sc2c1S(=O)(=O)O.N
95%

Next entry: Cc1ccc2nc(-c3ccc(NC(=O)c4ccc(NS(=O)(=O)c5ccccc5)cc4)cc3)sc2c1S(=O)(=O)O
61%

Entry to check: Cc1ccc2nc(-c3ccc4nc(-c5ccc(NC(=O)c6c(F)cccc6C(F)(F)F)cc5)sc4c3)sc2c1S(=O)(=O)O
96%

Next entry: Cc1ccc2nc(-c3ccc4nc(-c5ccc(NC(=O)c6cccc(C(F)(F)F)c6)cc5)sc4c3)sc2c1S(=O)(=O)O
23%

====

Measured Cell viability (% viable) of individual entries
Test system: Huh-7.5 cells
Assay: Cell viability assay ([…]-GLO)
Assay type: cell-based, human
Settings: 10 μM compound, triplicate, average ± SD
A number alone suffices; assume %.

Cc1ccc2nc(-c3ccc4nc(-c5ccc(NC(=O)c6ccc(C(C)(C)C)cc6)cc5)sc4c3)sc2c1S(=O)(=O)O [Compound 13] | 87
Cc1ccc2nc(-c3ccc4nc(-c5ccc(NC(=O)c6ccc(Cl)cc6)cc5)sc4c3)sc2c1S(=O)(=O)O [Compound 10] | 84
Cc1ccc2nc(-c3ccc4nc(-c5ccc(NC(=O)c6ccc7nc(-c8ccc(NC(=O)OCC9c%10ccccc%10-c%10ccccc%109)cc8)sc7c6)cc5)sc4c3)sc2c1S(=O)(=O)O.N [Compound 36] | 90
Cc1ccc2nc(-c3ccc4nc(-c5ccc(NC(=O)c6cccnc6)cc5)sc4c3)sc2c1S(=O)(=O)O [Compound 31] | 113
Cc1ccc2nc(-c3ccc4nc(-c5ccc(NC(=O)c6cc(F)cc(C(F)(F)F)c6)cc5)sc4c3)sc2c1S(=O)(=O)O [Compound 27] | 113
Cc1ccc2nc(-c3ccc4nc(-c5ccc(NC(=O)c6ccc(NC(=O)OCC7c8ccccc8-c8ccccc87)cc6)cc5)sc4c3)sc2c1S(=O)(=O)O [Compound 16] | 92
Cc1ccc2nc(-c3ccc4nc(-c5ccc(NC(=O)c6ccc7nc(-c8ccc(N)cc8)sc7c6)cc5)sc4c3)sc2c1S(=O)(=O)O [Compound 35] | 85
Cc1ccc2nc(-c3ccc4nc(-c5ccc(NC(=O)c6ccc(N)cc6)cc5)sc4c3)sc2c1S(=O)(=O)O [Compound 6] | 93

For the molecule shown here, Cc1ccc2nc(-c3ccc4nc(-c5ccc(NC(=O)c6ccccc6)cc5)sc4c3)sc2c1S(=O)(=O)O [Compound 5] , give the reported Cell viability (% viable).
88

Record: Cc1ccc(NC(=O)Nc2ccc(-c3nc4ccc(-c5nc6ccc(C)c(S(=O)(=O)O)c6s5)cc4s3)cc2)cc1 [Compound 28]
93

Now the molecule Cc1ccc2nc(-c3ccc4nc(-c5ccc(NC(=O)c6ccc(Br)cc6)cc5)sc4c3)sc2c1S(=O)(=O)O [Compound 15]
113

// next record CC(=O)Nc1ccc(-c2nc3ccc(-c4nc5ccc(C)c(S(=O)(=O)O)c5s4)cc3s2)cc1 [Compound 30]
100

Do the same for Cc1ccc2nc(-c3ccc4nc(-c5ccc(NC(=O)c6cc(F)ccc6C(F)(F)F)cc5)sc4c3)sc2c1S(=O)(=O)O [Compound 26] please
118

====

// values below are reported Int.* (Ratio) (Interference)
Target: HCV NS3 helicase NS3h_1b(con1) (Hepatitis C virus genotype 1b, UniProt Q9WMX2)
Construct: truncated C-terminally His-tagged NS3 proteins lacking the N-terminal protease, called NS3h; His-tag (C); made in house
Assay: MBHA screen of NCI mechanistic set library at 20 μM (percent inhibition, compound interference)
Type: biochemical
Conditions: compounds at 20 μM, MBHA with DNA substrate; assay interference calculated with Equation 2
Experimental: All molecular beacon-based helicase assays (MBHAs) were performed according to known methods (Belon & Frick (2008) supra; Belon & Frick (2009) supra). […] Fluorescence was read before ATP (F0) addition and 30 minutes after ATP was added to 1 mM (F30) using a Tecan Infinite M200 fluorescence microplate reader with excitation and emission wavelengths set to 643 and 670 nm, respectively. […]
Return type: number; implicit unit Ratio.

Example compounds with recorded Int.* (Ratio) (Interference):
O=C1C=C2C=CC3CC2(O1)C1CCCCN31 (stereo not drawn) | 0.97
Cc1ccc(C)c2c(N=Nc3ccccc3[N+](=O)[O-])c(O)[nH]c12 | 0.89
Cn1cnc([N+](=O)[O-])c1Sc1nnnn1-c1ccccc1 | 0.94
C(=N\NC1=NCCN1)/c1c2ccccc2c(/C=N/NC2=NCCN2)c2ccccc12 | 0.65
CCCCC(/C=N/N=C(N)N)CC.Cc1cc(O)c(C(C)C)cc1S(=O)(=O)O | 1.21

Reported Int.* (Ratio) (Interference) for HCV NS3 helicase NS3h_1b(con1) (Hepatitis C virus genotype 1b, UniProt Q9WMX2), given O=C(O)CC(NC(=O)CP(=O)(O)O)C(=O)O (stereo not drawn) ?
0.86

Another compound to look at: CC(=O)Nc1ccc(-c2nc3ccccc3s2)cc1
0.89

Try CCOC(=O)/C(=C/c1ccc(N(C)C)cc1)N(CC)CC next.
0.90

# repeat for CCCCCCCC/C=C\CCCCCCCC(=O)O
0.84
